Source: patent US20200262813A1

- Target desc: Recombinant PRC2 (EZH2-Y641F) (Homo sapiens, UniProt Q15910, Y641F)
- Sequence (Q15910 whole entry Y641F): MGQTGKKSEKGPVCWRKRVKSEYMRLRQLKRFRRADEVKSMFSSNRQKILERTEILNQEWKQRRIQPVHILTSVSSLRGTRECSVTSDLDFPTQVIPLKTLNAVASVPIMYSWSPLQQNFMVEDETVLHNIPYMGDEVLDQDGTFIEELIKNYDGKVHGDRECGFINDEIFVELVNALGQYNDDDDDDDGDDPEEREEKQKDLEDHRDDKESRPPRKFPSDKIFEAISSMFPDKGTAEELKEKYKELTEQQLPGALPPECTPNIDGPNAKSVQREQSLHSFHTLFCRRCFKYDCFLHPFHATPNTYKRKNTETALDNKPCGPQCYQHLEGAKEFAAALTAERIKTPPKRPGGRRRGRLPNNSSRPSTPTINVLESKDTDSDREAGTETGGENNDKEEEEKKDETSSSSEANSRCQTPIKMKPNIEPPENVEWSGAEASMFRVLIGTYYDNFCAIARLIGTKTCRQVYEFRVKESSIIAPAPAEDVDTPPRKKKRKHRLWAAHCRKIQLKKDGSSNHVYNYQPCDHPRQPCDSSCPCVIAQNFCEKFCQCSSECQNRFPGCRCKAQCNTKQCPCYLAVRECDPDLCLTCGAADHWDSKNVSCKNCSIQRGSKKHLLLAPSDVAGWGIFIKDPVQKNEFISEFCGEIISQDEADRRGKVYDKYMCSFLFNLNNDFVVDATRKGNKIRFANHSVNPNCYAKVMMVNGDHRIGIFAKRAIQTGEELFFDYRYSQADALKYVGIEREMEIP
- Sequence (O75530 whole entry partner): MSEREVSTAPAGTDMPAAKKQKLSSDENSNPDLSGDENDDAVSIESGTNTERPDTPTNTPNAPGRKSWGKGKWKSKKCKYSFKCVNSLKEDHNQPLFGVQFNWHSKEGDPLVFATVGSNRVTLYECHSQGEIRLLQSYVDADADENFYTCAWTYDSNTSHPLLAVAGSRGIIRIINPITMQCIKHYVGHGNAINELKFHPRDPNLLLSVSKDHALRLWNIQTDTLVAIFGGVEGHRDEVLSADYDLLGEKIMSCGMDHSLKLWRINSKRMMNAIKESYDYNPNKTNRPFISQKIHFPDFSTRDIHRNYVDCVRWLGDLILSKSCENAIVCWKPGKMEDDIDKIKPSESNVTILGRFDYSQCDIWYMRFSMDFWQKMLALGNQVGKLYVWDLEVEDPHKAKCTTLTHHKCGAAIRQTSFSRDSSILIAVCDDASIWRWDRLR
- Sequence (Q15022 whole entry partner): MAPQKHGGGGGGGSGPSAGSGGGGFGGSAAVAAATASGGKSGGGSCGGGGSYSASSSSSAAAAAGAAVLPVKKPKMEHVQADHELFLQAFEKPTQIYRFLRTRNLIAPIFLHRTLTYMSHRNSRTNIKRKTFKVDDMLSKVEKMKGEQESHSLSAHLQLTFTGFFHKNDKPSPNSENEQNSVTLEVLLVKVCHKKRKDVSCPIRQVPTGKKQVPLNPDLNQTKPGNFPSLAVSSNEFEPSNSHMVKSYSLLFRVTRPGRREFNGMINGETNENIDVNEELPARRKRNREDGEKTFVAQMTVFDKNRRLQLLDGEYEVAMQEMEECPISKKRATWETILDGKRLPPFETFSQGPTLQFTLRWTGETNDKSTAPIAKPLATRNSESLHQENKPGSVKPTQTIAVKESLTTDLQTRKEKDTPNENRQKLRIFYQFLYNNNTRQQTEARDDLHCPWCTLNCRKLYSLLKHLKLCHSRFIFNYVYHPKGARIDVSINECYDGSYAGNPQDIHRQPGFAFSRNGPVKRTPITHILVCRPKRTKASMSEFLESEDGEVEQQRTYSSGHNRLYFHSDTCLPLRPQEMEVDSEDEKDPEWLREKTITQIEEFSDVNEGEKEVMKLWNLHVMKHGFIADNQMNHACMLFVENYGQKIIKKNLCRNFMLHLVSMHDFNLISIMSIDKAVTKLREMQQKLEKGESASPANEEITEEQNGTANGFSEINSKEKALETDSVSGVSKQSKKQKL
- Sequence (Q09028 whole entry partner): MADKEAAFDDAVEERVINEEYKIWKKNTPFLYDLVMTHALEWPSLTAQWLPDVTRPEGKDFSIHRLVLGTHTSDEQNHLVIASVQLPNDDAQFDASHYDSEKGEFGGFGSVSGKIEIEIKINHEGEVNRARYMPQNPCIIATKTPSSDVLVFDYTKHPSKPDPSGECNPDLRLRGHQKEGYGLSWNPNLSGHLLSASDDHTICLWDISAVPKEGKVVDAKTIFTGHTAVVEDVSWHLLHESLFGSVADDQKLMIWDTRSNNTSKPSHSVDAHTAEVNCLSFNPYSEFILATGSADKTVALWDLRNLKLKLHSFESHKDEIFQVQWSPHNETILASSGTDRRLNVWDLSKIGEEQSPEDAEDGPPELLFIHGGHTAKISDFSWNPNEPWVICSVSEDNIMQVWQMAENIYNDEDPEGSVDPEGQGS
- Sequence (Q6ZN18 whole entry partner): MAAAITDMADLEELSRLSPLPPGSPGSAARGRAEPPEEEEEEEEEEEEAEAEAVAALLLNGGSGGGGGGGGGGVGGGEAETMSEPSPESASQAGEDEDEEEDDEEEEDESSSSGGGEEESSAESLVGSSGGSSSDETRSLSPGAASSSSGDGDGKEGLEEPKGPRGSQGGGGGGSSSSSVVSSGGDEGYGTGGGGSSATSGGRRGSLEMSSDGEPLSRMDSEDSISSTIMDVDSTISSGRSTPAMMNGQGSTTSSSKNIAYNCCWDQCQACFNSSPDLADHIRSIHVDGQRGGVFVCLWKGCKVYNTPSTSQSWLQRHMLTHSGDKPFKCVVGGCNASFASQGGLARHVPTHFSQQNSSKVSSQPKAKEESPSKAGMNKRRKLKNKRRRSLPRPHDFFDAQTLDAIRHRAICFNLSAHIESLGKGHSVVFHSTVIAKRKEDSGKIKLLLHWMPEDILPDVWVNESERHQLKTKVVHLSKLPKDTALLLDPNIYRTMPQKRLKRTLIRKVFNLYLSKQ
- Assay summary: In vitro methyltransferase activity test (LANCE Ultra)
- Measurement parameters: EZH2 Y641F IC50, Recombinant PRC2 (EZH2-Y641F), LANCE Ultra detection, 3 hours reaction
For each of the compounds below, state its pIC50.
Scale: negative log10 of molar concentration, which is what pIC50 denotes.

Query :: Quick one: pIC50 for CCN(c1cc(-c2cnn(C)c2)cc2c(NCc3c(C)cc(C)[nH]c3=O)nccc12)[C@H]1CC[C@H](N(C)C)CC1 [Compound Z-38] ?
Result :: 6.86

Query :: Which pIC50 value belongs to CCN(c1cc(-c2ccccn2)cc2c(NCc3c(C)cc(C)[nH]c3=O)nccc12)C1CCN(C(C)C)CC1 [Compound Z-126] ?
Result :: 6.81

Query :: Recorded pIC50 for CCN(c1cc(-c2ccc(Oc3cccnc3)cc2)cc2c(NCc3c(C)cc(C)[nH]c3=O)nccc12)C1CCC(N(C)C)CC1 (stereo not drawn) [Compound Z-78] , please?
Result :: 6.70

###

- Test system: Pfeiffer cells
- Assay summary: Cell proliferation test (cell counting kit-8, 6 days)
- Type: cell-based
- Measurement parameters: Homo sapiens, Pfeiffer, 144 h, 6 days' growth
Measure name: pIC50
Just so you know, pIC50 here is -log10 of the concentration in molar units; reply with that number alone.

Query :: I am curious: what pIC50 value has been reported for CCN(c1cc(-c2cncc(F)c2)cc2c(NCc3c(C)cc(C)[nH]c3=O)nccc12)C1CCN(C(C)C)CC1 [Compound Z-125] ?
Result :: 6.11

Query :: Look at this compound and give its reported pIC50. CCN(c1cc(-c2cccnc2)cc2c(NCc3c(C)cc(C)[nH]c3=O)nccc12)[C@H]1CC[C@@H](N(C)C)CC1 [Compound Z-64]
Result :: 6.45

Query :: pIC50 lookup needed for CCN(c1cc(-c2cncnc2)cc2c(NCc3c(C)cc(C)[nH]c3=O)nccc12)C1CCC(N(C)C)CC1 (stereo not shown) [Compound Z-65] , thanks.
Result :: 6.01

Query :: For the compound shown here, CCN(c1cc(-c2ccncc2)cc2c(NCc3c(C)cc(C)[nH]c3=O)nccc12)[C@H]1CC[C@H](N(C)C)CC1 [Compound Z-73] , give the reported pIC50.
Result :: 6.23

###

- Target desc: Recombinant PRC2 (EZH2-Y641F) (Homo sapiens, UniProt Q15910, Y641F)
- Assay summary: In vitro methyltransferase activity test (LANCE Ultra)
- Measurement parameters: EZH2 Y641F IC50, Recombinant PRC2 (EZH2-Y641F), LANCE Ultra detection, 3 hours reaction
Measure name: log10 IC50 (log10 of the value in nM)
Log10 applied to IC50; unit prior to transform: nM.

Query :: For the compound CCN(c1c(F)c(-c2ccc(N3CCN(C)CC3)nc2)cc2c(NCc3c(C)cc(C)[nH]c3=O)nccc12)C1CCOCC1 , what log10 IC50 is on record?
Result :: 2.56

Query :: Data request, read-out log10 IC50, for CCN(c1cc(-c2ccc(CN3CCOCC3)cc2)cc2c(NCc3c(C)cc(C)[nH]c3=O)nccc12)C1CCC(O)CC1 (centres unmarked)
Result :: 2.21

Query :: Which log10 IC50 value belongs to CCN(c1cc(Cl)cc2c(NCc3c(OC)cc(C)[nH]c3=O)nccc12)C1CCNCC1 ?
Result :: 0.95

Query :: Given the entry CCN(c1cc(-c2ccc(N3CCN(C)CC3)nc2)cc2c(NCc3c(C)cc(C)[nH]c3=O)nccc12)C1CCN(C)CC1 , report its measured log10 IC50.
Result :: 1.41

Query :: Consider the compound shown here: CCN(c1cc(Cl)cc2c(NCc3c(C)cc(C)[nH]c3=O)nccc12)C1CCN(S(C)(=O)=O)CC1 What is its recorded log10 IC50?
Result :: 2.63

Query :: Please report the recorded log10 IC50 for CCN(c1cc(-c2ccc(CN3CCNCC3)nc2)cc2c(NCc3c(C)cc(C)[nH]c3=O)nccc12)C1CCC(N(C)C)CC1 (centres unmarked) .
Result :: 1.28

Query :: Please report the recorded log10 IC50 for CCN(c1cc(C(F)(F)F)cc2c(NCc3c(C)cc(C)[nH]c3=O)nccc12)C1CCOCC1 .
Result :: 2.63

Query :: Would you mind telling me what log10 IC50 value was observed for CCN(c1cc(-c2ccc(CN3CCN(C)CC3)nc2)cc2c(NCc3c(C)cc(C)[nH]c3=O)nccc12)C1CCOCC1 [Compound Z-35] ?
Result :: 2.34

Query :: Param item = CCN(c1cc(-c2ccc(CN(C)C)cc2)cc2c(NCc3c(C)cc(C)[nH]c3=O)nccc12)C1CCC(N(C)C)CC1 (centres unmarked) ; retrieve measured log10 IC50.
Result :: 1.58

Query :: Suppose we examine the compound CCN(c1cc(C#CCN2CCOCC2)cc2c(NCc3c(C)cc(C)[nH]c3=O)nccc12)C1CCN(C(C)=O)CC1 ; what log10 IC50 value has been reported?
Result :: 2.35

Query :: Dear colleague, I am looking for the recorded log10 IC50 of the following compound: CCN(c1cc(-c2ccc(CN3CCN(C)CC3)nc2)cc2c(NCc3c(C)cc(C)[nH]c3=O)nccc12)C1CCOCC1 [Compound Z-118]
Result :: 1.93

Query :: What does the data say about its log10 IC50? Entry: CCN(c1cc(Nc2cccnc2)cc2c(NCc3c(C)cc(C)[nH]c3=O)nccc12)[C@H]1CC[C@H](N(C)C)CC1
Result :: 2.70

Query :: What value of log10 IC50 has been recorded for this entry: CCN(c1cc(OCCOC)cc2c(NCc3c(C)cc(C)[nH]c3=O)nccc12)C1CCC(N(C)C)CC1 (centres unmarked)
Result :: 2.06

Query :: What value of measured log10 IC50 is listed for CCN(c1cc(Cl)cc2c(NCc3c(C)cc(C)[nH]c3=O)nccc12)C1CCN(C(=O)CO)CC1 ?
Result :: 2.14

Query :: Record request: log10 IC50 value, item CCN(c1cc(-c2ccc(CN(C)C)cc2)cc2c(NCc3c(C)cc(C)[nH]c3=O)nccc12)C1CCOCC1
Result :: 2.47

Query :: Record request: log10 IC50 value, item CCN(c1cc(-c2cn[nH]c2)cc2c(NCc3c(C)cc(C)[nH]c3=O)nccc12)C1CCOCC1
Result :: 2.63

Query :: Endpoint output: log10 IC50 of CCN(c1cc(Cl)cc2c(NCc3c(C)cc(C)[nH]c3=O)nccc12)C1CCN(C(C)=O)CC1 . Value?
Result :: 2.18

Query :: Name the reported log10 IC50 value associated with the compound CCN(c1cc(Cl)cc2c(NCc3c(C)cc(C)[nH]c3=O)nccc12)C1CCC(N2CCC2)CC1 (centres unmarked)
Result :: 1.54

Query :: So what does the record say about log10 IC50 for CCN(c1cc(C2=CCN(C)CC2)cc2c(NCc3c(C)cc(C)[nH]c3=O)nccc12)C1CCC(N(C)C)CC1 (centres unmarked) ?
Result :: 1.08

Query :: // lookup log10 IC50 for CCN(c1cc(Cl)cc2c(NCc3c(C)cc(C)nc3O)nccc12)C1CC2CNCC2C1 (centres unmarked)
Result :: 1.76

Query :: What value of log10 IC50 has been recorded for this entry: CCN(c1cc(-c2cnn(C)c2)cc2c(NCc3c(C)cc(C)[nH]c3=O)nccc12)C1CCOCC1
Result :: 2.68

Query :: log10 IC50 for CCN(c1cc(-c2cnc(CN3CCN(C)CC3)nc2)cc2c(NCc3c(C)cc(C)[nH]c3=O)nccc12)C1CCOCC1 ?
Result :: 1.67

Query :: What value of log10 IC50 has been recorded for this entry: CCN(c1cc(C(N)=O)cc2c(NCc3c(C)cc(C)[nH]c3=O)nccc12)[C@H]1CC[C@H](N(C)C)CC1
Result :: 1.81

###

- Target desc: Recombinant PRC2 (EZH2-Y641F) (Homo sapiens, UniProt Q15910, Y641F)
- Assay summary: In vitro methyltransferase activity test (LANCE Ultra);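 also: compounds tested as an 8-point threefold dilution series, fluorescence read after 1 h detection step at room temperature, IC50 derived from a four-parameter curve fit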
- Measurement parameters: EZH2 Y641F IC50, Recombinant PRC2 (EZH2-Y641F), LANCE Ultra detection, 3 hours reaction
pIC50: −log10 of the molar value.
pIC50 vs 7: at or above is YES, below is NO.

Query :: Record CCN(c1cc(Oc2ccccc2)cc2c(NCc3c(C)cc(C)[nH]c3=O)nccc12)[C@H]1CC[C@H](N(C)C)CC1 [Compound Z-190] ; criterion: pIC50 no lower than 7. Met?
Result :: NO

Query :: Given the entry CCN(c1cc(-c2ccc(CN3CCOCC3)cc2)cc2c(NCc3c(C)cc(C)[nH]c3=O)nccc12)C1CCN(C(C)=O)CC1 [Compound Z-60] , answer whether its pIC50 meets or surpasses 7.
Result :: NO

Query :: Determine whether measured pIC50 meets or exceeds 7 for CCN(c1cc(Br)cc2c(NCc3c(C)cc(C)[nH]c3=O)nccc12)C1CCOCC1 [Compound Z-3]
Result :: NO

Query :: Hi, just wondering whether CCN(c1cc(C#CCN2CCOCC2)cc2c(NCc3c(C)cc(C)[nH]c3=O)nccc12)C1CCOCC1 [Compound Z-178] shows pIC50 of 7 or higher.
Result :: NO

Query :: Quick check: does CCN(c1cc(Cl)cc2c(NCc3c(C)cc(C)[nH]c3=O)nccc12)C1CC2CCC(C1)N2 (centres unmarked) [Compound Z-209] have pIC50 greater than or equal to 7?
Result :: YES

Query :: Has CCN(c1cc(-c2ccc(CN3CCOCC3)cc2)cc2c(NCc3c(C)cc(C)[nH]c3=O)nccc12)C1CCC(N(C)C)CC1 (centres unmarked) [Compound Z-41] a recorded pIC50 greater than or equal to 7?
Result :: YES

Query :: In plain terms: is recorded pIC50 at least 7 for Cc1cc(C)c(CNc2nccc3c(N(C)C4CCC(N(C)C)CC4)cc(-c4ccc(N5CCN(C)CC5)nc4)cc23)c(=O)[nH]1 (centres unmarked) [Compound Z-111] ?
Result :: YES

Query :: Does the molecule CCN(c1cc(C(=O)N(C)C)cc2c(NCc3c(C)cc(C)[nH]c3=O)nccc12)[C@H]1CC[C@H](N(C)C)CC1 [Compound Z-170] have recorded pIC50 that is 7 or more?
Result :: NO

Query :: Please tell me: is the molecule CCN(c1cc(-c2cnc(N3CCOCC3)nc2)cc2c(NCc3c(C)cc(C)[nH]c3=O)nccc12)[C@H]1CC[C@H](N(C)C)CC1 [Compound Z-46] at or over 7 in terms of pIC50?
Result :: YES
